Items are presented alongside their recorded log10 of rat_CLt.
Assay: Evaluation of total body clearance (CLtot), intravenous administration
Format: in vivo, Sprague-Dawley (SD)
Conditions: rat (SD), intravenous administration 0.5-10 mg/kg; CLtot = dose/AUC
experimental endpoint: log10 of rat_CLt (log10 of the value in mL/min/kg)

>  <compound>
COc1ccc(S(=O)(=O)N(CC(C)C)CC(O)C(Cc2ccc(SCc3ccccc3-c3sc4c(c3C(=O)O)CC(C)(C)CC4)cc2)NC(=O)OC2COC3(C)OCCC23)cc1 (stereo not shown)

>  <recorded number>
-0.15

$$$$
>  <compound>
COc1ccc(S(=O)(=O)N(CC(C)C)CC(O)C(Cc2ccc(CN(C)c3ccc(-c4sc5c(c4C(=O)O)CC(C)(C)CC5)cc3)cc2)NC(=O)OC2COC3(C)OCCC23)cc1 (stereo not shown)

>  <recorded number>
0.60

$$$$
>  <compound>
COc1ccc(S(=O)(=O)N(CC(C)C)CC(O)C(Cc2ccc(N(C)Cc3ccccc3-c3sc(N(C4CCCCC4)C4CCCCC4)nc3C(=O)O)cc2)NC(=O)OC2COC3(C)OCCC23)cc1 (stereo not shown)

>  <recorded number>
0.34

$$$$
>  <compound>
COc1ccc(S(=O)(=O)N(CC(C)C)CC(O)C(Cc2ccc(NCc3cc4c(cc3-c3sc5c(c3C(=O)O)CC(C)(C)CC5)OCO4)cc2)NC(=O)OC2COC3(C)OCCC23)cc1 (stereo not shown)

>  <recorded number>
-0.01

$$$$
>  <compound>
COc1ccc(S(=O)(=O)N(CC(C)C)CC(O)C(Cc2ccc(NCc3ccc4scc(C(=O)Nc5sc6c(c5C(=O)O)CC(C)(C)CC6)c4c3)cc2)NC(=O)OC2COC3(C)OCCC23)cc1 (stereo not shown)

>  <recorded number>
-0.06

$$$$
>  <compound>
COc1ccc(S(=O)(=O)N(CC(C)C)CC(O)C(Cc2ccc(OCc3ccccc3-c3ccc(Oc4ccc(-c5c(O)c6ccc(Cl)cc6[nH]c5=O)cc4)cc3)cc2)NC(=O)OC2COC3OCCC23)cc1 (stereo not shown)

>  <recorded number>
0.78

$$$$
>  <compound>
CC1(C)CCc2sc(NC(=O)c3ccccc3CNc3ccc(CC(NC(=O)OC4COC5OCCC45)C(O)CN(CC4CCC4)S(=O)(=O)c4ccc5c(c4)OCO5)cc3)c(C(=O)O)c2C1 (stereo not shown)

>  <recorded number>
-1.09

$$$$
>  <compound>
COc1ccc(S(=O)(=O)N(CC(C)C)CC(O)C(Cc2ccc(OCc3ccccc3-c3sc4c(c3C(=O)O)CC(C)(C)CC4)cc2)NC(=O)OC2COC3(C)OCC(OCc4ccccc4)C23)cc1 (stereo not shown)

>  <recorded number>
-0.12

$$$$
>  <compound>
COc1ccc(S(=O)(=O)N(CC(C)C)CC(O)C(Cc2ccc(N(C)Cc3cccc(C(F)(F)F)c3-c3sc4c(c3C(=O)O)CC(C)(C)CC4)cc2)NC(=O)OC2COC3(C)OCCC23)cc1 (stereo not shown)

>  <recorded number>
-0.48

$$$$
>  <compound>
COc1ccc(S(=O)(=O)N(CC(C)C)CC(O)C(Cc2ccc(NCc3cc(N4CCOCC4)ccc3-c3sc4c(c3C(=O)O)CC(C)(C)CC4)cc2)NC(=O)OC2COC3(C)OCCC23)cc1 (stereo not shown)

>  <recorded number>
0.22

$$$$
>  <compound>
COc1ccc(S(=O)(=O)N(CC(C)C)CC(O)C(Cc2ccc(NCc3cc(N4CCN(C)CC4)ccc3-c3sc4c(c3C(=O)O)CC(C)(C)CC4)cc2)NC(=O)OC2COC3(C)OCCC23)cc1 (stereo not shown)

>  <recorded number>
0.44

$$$$
>  <compound>
COc1ccc(S(=O)(=O)N(CC(C)C)CC(O)C(Cc2ccc(N3CCC(Oc4ccc(-c5sc6c(c5C(=O)O)CC(C)(C)CC6)cc4)C3)cc2)NC(=O)OC2COC3(C)OCCC23)cc1 (stereo not shown)

>  <recorded number>
0.49

$$$$
>  <compound>
COc1ccc(S(=O)(=O)N(CC(C)C)CC(O)C(Cc2ccc(CCc3sc4c(c3C(=O)O)CC(C)(C)CC4(C)C)cc2)NC(=O)OC2COC3(C)OCCC23)cc1 (stereo not shown)

>  <recorded number>
0.36

$$$$

src = patent US20170253607A1
